These data points were gathered from the Human Domainome abundance scans (Beltran et al. 2025).

Each entry below lists one item and its recorded abundance fitness value.
B1: Gamma-crystallin D, residues 90 to 170; numbered along this chain, P07320 (parent)
chain: IRLYEREDYRGQMIEFTEDCSCLQDRFRFNEIHSLNVLEGSWVLYELSNYRGRQYLLMPGDYRRYQDWGATNARVGSLRRV

- Variants of: B1
- ASSAY_EXPLANATION: abundance fitness (aPCA) (normalised: wild type 0, dead -1); higher = more abundant; growth selection in yeast, the domain comes from the species named
- EXPERIMENTAL_SETUP: Homo sapiens
Lab note: record just the number, no unit beside it.

Examples with answers:
# MUTATION_CODE, abundance fitness
rows = [
    ("D19L", -0.169),
    ("Q12L", -0.173),
    ("N30M", -0.051),
]

Here is another variant to look at.
// abundance fitness lookup, variant = T17C , result: 0.007
